Cited source: patent US20220073643A1

Recorded EC50 by entry
# Target: Claudin18.2-His protein (human)
# Experimental Protocol: indirect ELISA on coated Claudin18.2-His
Note: unit µg/mL is implicit; provide only the numeric part.

406F11G8 (antibody, V domains shown) VH: DVQLVESGGGLVQPGGSRKLSCAASGFTFSSFGMHWVRQAPEKGLEWVAYISSGSSPIYYADTVKGRFTISRDNSKNTLFLQMTSLRSEDTAMYFCARIYYGNSFAYWGQGTLVTVSA VL: DIVMTQSPSSLTVTAGEKVAMSCKSSQTLLNSGNQKNYLTWYQQKPGQPPKLLIYWASTRESGVPDRFTGSGSGTDFTLTISSVQAEDLAVYYCQNAYYYPLTFGSGTKLELK = 0.016

Consider the binder 256C3D3 (antibody, V domains shown) VH: QAYLQQSGAELVRSGASVKMSCKASGYAFTSHNMHWVKQTPGQGLEWIGYISPGNGYTNYNQKFRGKATLTADTSSSTAYMQIGSLTSEDSAVYFCTRDYYGNSFAYWGQGTLVTVSA VL: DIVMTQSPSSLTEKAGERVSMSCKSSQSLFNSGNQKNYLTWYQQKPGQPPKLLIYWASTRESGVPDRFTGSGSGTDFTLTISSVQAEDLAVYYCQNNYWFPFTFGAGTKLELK . State its measured EC50.
0.0133

Using known records, supply EC50 for 252C10F6 (antibody, V domains shown) VH: QVHLKQSGRGLVQPSQSLSITCTVSGFSLPNYGVHWVRQPPGKGLEWLGVIWSGGNTDYNTVFKARLSITKDNSKSQVFFKMNSLQADDTAIYYCARNLYGNYDYAMDYWGQGTSVTVSS VL: DIVMTQSPATLSVTPGDRVSLSCRASQSISDYLHWYQQKSHESPRLLIKYASQSISGIPSRFSGSGSGSEFTLSINSVEPEDVGVYYCQNGHSFPFTFGSGTKLEIK
1.66
